Each recorded value in this set is attributed to patent US20240010635A1.

Please respond with reported IC50 for every item in the list.
- experimental.system: RET M918T (Homo sapiens, UniProt P07949, M918T)
- Construct: Recombinant proteins containing RET wt, RET (M918T) and RET (V804L) domains were purchased from Promega; purchased Promega VA7274
- Sequence (P07949 724-1016 M918T limits assumed): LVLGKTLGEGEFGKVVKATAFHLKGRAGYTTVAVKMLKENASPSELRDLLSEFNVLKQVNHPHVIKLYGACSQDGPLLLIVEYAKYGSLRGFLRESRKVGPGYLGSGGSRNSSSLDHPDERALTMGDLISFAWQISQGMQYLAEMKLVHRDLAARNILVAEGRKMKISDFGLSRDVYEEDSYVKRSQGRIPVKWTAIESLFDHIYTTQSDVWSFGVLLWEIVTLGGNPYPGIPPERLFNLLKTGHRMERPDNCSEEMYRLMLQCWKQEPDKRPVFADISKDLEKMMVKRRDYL
- test.method.notes: ADP-Glo kinase assay, RET M918T
- Type: biochemical
- experimental.setup: recombinant RET (M918T), 120 min room temperature, read-out: Enzyme activity (IC50, nM) RET M918T
- Experimental: Analysis performed in two steps. First, after kinase reaction, ADP-Glo™ reagent of equal volume was added to finish kinase reaction, and then the rest ATP was exhausted. Second, Kinase Detection Reagent was added to convert ADP to ATP and newly synthesized ATP was measured by luciferase/luciferin reaction at the same time. Generated light was measured by using luminometer. […]
Value expressed in nM; do not type the unit.

Form: Entry = `O=C1Nc2ccc(F)cc2/C1=C1/Nc2ccccc2/C1=N\OCCN[C@H]1[C@@H]2CNC[C@@H]21` | System = RET M918T (Homo sapiens, UniProt P07949, M918T) | IC50 = ____
0.666

Thanks! And `N[C@@H]1[C@H]2CN(CCO/N=C3/C(=C4/C(=O)Nc5ccc(F)cc54)Nc4ccccc43)C[C@@H]12` ?
0.344

Thanks! And `O=C1Nc2ccc(F)cc2/C1=C1/Nc2ccccc2/C1=N\OCCN1C[C@H]2C[C@@H]1CN2` ?
1.02

Thanks! And `O=C1Nc2ccc(F)cc2/C1=C1/Nc2ccccc2/C1=N\OCC(=O)N1CC2(CNC2)C1` ?
0.921

Thanks! And `O=C1Nc2ccccc2/C1=C1/Nc2ccccc2/C1=N\OCC(=O)N1C[C@H]2C[C@@H]1CN2` ?
1.44

Thanks! And `O=C1Nc2ccc(F)cc2/C1=C1/Nc2ccccc2/C1=N\OCCN1C[C@@H]2C[C@H]1CN2` ?
0.617

Thanks! And `O=C(CO/N=C1/C(=C2/C(=O)Nc3ccccc32)Nc2ccccc21)N[C@H]1[C@@H]2CNC[C@@H]21` ?
1.19

Thanks! And `O=C1Nc2ccc(Br)cc2/C1=C1/Nc2ccccc2/C1=N\OCCN1C[C@H]2C[C@@H]1CN2` ?
1.03

Thanks! And `O=C1Nc2ccccc2/C1=C1/Nc2ccccc2/C1=N\OCCN1C[C@H]2C[C@@H]1CN2` ?
0.348

Thanks! And `O=C(CO/N=C1/C(=C2/C(=O)Nc3ccc(F)cc32)Nc2ccccc21)N[C@H]1[C@@H]2CNC[C@@H]21` ?
1.39

###

- experimental.system: FLT3 WT (Homo sapiens, UniProt P36888)
- Construct: Recombinant proteins containing the FLT3 and FLT3 (D835Y) domains were purchased from Promega; purchased Promega V4064
- Sequence (P36888 610-943 limits assumed): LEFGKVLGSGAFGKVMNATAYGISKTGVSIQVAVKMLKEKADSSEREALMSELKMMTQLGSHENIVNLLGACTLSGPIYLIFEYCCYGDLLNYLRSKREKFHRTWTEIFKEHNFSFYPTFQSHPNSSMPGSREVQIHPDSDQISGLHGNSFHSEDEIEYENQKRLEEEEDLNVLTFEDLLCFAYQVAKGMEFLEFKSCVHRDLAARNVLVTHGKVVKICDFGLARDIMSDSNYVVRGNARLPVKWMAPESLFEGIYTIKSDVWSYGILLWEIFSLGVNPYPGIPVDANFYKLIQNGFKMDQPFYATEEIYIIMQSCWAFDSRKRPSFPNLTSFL
- test.method.notes: ADP-Glo kinase assay, FLT3 WT
- Assay type: biochemical
- experimental.setup: recombinant FLT3, ADP-Glo, 120 min room temperature; read-out: Enzyme activity (IC50, nM) FLT3 WT
measurement.type: IC50 (nM)
Value expressed in nM; do not type the unit.

Looking for the measured IC50 of `O=C1Nc2ccc(F)cc2/C1=C1/Nc2ccccc2/C1=N\OCCN1C[C@@H]2C[C@H]1CN2` , can you help?
2.41

Thanks! And `O=C1Nc2ccc(F)cc2/C1=C1/Nc2ccccc2/C1=N\OCCN[C@H]1[C@@H]2CNC[C@@H]21` ?
1.47

Thanks! And `O=C1Nc2ccc(Br)cc2/C1=C1/Nc2ccccc2/C1=N\OCCN1C[C@H]2C[C@@H]1CN2` ?
4.72
